Target: C1r from human plasma, activated, two-chain form (Homo sapiens, UniProt P00736)
Sequence (P00736 18-463 partner limits assumed): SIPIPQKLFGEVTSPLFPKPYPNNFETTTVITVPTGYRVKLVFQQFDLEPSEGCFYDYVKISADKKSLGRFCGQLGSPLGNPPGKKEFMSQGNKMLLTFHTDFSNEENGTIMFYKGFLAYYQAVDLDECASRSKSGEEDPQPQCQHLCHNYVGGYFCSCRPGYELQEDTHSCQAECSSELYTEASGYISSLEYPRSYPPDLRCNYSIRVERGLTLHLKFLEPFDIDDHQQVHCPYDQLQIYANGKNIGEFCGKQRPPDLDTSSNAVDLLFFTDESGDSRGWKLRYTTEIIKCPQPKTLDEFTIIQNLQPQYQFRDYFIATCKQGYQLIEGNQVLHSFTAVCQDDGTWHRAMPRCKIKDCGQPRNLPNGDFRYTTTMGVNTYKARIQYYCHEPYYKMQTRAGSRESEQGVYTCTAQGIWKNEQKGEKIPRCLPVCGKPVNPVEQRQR
Sequence (P00736 464-705 limits assumed): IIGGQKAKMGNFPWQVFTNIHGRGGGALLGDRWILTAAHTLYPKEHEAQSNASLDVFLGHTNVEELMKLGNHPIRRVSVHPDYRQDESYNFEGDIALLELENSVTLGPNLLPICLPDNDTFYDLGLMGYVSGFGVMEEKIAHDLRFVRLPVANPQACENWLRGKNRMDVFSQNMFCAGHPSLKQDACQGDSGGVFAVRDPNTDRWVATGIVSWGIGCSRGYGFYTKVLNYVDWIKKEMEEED
Test: Color substrate test for C1r inhibition (Example A)
Settings: amidolytic C1r activity, substrate Cbz-Gly-Arg-S-Bzl; read-out: C1R IC50 according to Example A
quantity name: IC50 (µM)

Please review the following examples before continuing.
- N=C(N)c1ccc(CNC(=O)[C@@H]2C=CCN2C(=O)[C@@H](CC2CCCCC2)NCC(=O)O)s1 [Example 32]: 10
- N=C(N)c1ccc(CNC(=O)[C@@H]2CSCN2C(=O)[C@@H](CC2CCCCC2)NCC(=O)O)s1 [Example 33]: 40
- N=C(N)c1ccc(CNC(=O)[C@@H]2CCN2C(=O)[C@H](NCC(=O)O)C2CCCCC2)s1 [Example 31]: 3
- N=C(N)c1ccc(CNC(=O)[C@@H]2C=CCN2C(=O)[C@H](NS(=O)(=O)Cc2ccc(N)cc2)C2CCCCC2)cn1 [Example 23]: 0.5
- CC(C)(C)OC(=O)CCCN[C@@H](C(=O)N1CCC[C@H]1C(=O)NCc1ccc(C(=N)N)nc1)C1CCCCC1 [Example 27]: 10
- N=C(N)c1ccc(CNC(=O)[C@@H]2C=CCN2C(=O)C(CCC2CCCCC2)NCC(=O)O)cn1 (stereo partly drawn) [Example 19, HOOC—CH2-HCha-Pyr-NH-3-(6-am)-pico]: 30
- COC(=O)CS(=O)(=O)N[C@@H](C(=O)N1CCC[C@H]1C(=O)NCc1ccc(C(=N)N)nc1)C1CCCCC1 [Example 17]: 40

[P] CS(=O)(=O)N[C@H](CC1CCCCC1)C(=O)N1CC=C[C@H]1C(=O)NCc1ccc(C(=N)N)nc1 [Example 13]
[Q] N=C(N)c1csc(CNC(=O)C2C=CCN2C(=O)C(NCC(=O)O)C2CCCCC2)c1Cl (stereo not drawn) [Example 49]
[R] N=C(N)c1csc(CNC(=O)[C@@H]2C=CCN2C(=O)C(NCC(=O)O)C2CCCCCC2)c1 (stereo partly drawn) [Example 41]
Order field: IC50 | Direction: descending (largest first) List the labels, following the order given in the request.
P, R, Q

---

Biological target: C1r from human plasma, activated, two-chain form (Homo sapiens)
Test: Color substrate test for C1r inhibition (Example A)
Settings: amidolytic C1r activity, substrate Cbz-Gly-Arg-S-Bzl; read-out: C1R IC50 according to Example A
pIC50: −log10 of the molar value.
quantity name: pIC50

* CS(=O)(=O)N[C@@H](C(=O)N1CCC[C@H]1C(=O)NCc1ccc(C(=N)N)nc1)C1CCCCC1 [Example 14] | < 4.00

# return pIC50 of N=C(N)c1ccc(CNC(=O)[C@@H]2CCCN2C(=O)[C@H]2Cc3ccccc3CN2)cc1 [Example 11, H-(D)3-Tic-Pro-NH-p-amb.2CH3COOH] (system: C1r from human plasma, activated, two-chain form (Homo sapiens))
< 4.00

Please report pIC50 with C1r from human plasma, activated, two-chain form (Homo sapiens) for item N=C(N)c1ccc(CNC(=O)[C@@H]2CCCN2C(=O)[C@H](NCCCCC(=O)O)C2CCCCC2)cn1 [Example 26] .
< 4.00

Consider the compound N=C(N)c1ccc(CNC(=O)[C@@H]2CCCN2C(=O)[C@H](NCCCCCC(=O)O)C2CCCCC2)cn1 [Example 24] tested on C1r from human plasma, activated, two-chain form (Homo sapiens); state its pIC50.
< 4.00
